// provenance: the supplement of paper PMC10567573

B1: PI4K2A (parent)
chain: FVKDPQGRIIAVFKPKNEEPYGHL

Variants of: B1
measurement_description: protein stability index of a GFP-peptide fusion (GPS, HEK-293T) (PSI 1-6); higher = more stable;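 further: lentivirally expressed fusions sorted by FACS into six bins by GFP to DsRed ratio, PSI derived from sequencing read proportions per bin multiplied by bin number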
measurement_setup: c terminus: a fixed tail appended
Response key: 1.0 means protein stability index >= 2; 0.0 means protein stability index < 2.

Please indicate if the recorded protein stability index for FVKDPQGRIIAVFKPKNESPYGHL [E19S] meets or exceeds 2. 0.0

Can you handle FVKDPQGRIIAVFKPKVEEPYGHL [N17V] next? 0.0

Can you handle FVKDPQGRIIAVFKPKNEEPYGLL [H23L] next? 1.0

Can you handle FVKDPQGRIIAVFKPKNEELYGHL [P20L] next? 0.0

Can you handle FVKDPQGRIIAVFKPKNEMPYGHL [E19M] next? 0.0

Can you handle FVKKPQGRIIAVFKPKNEEPYGHL [D4K] next? 1.0

Can you handle FVKDPQGRIIAVFKPKNGEPYGHL [E18G] next? 1.0

Can you handle FVKDPQGRIIAVFKPLNEEPYGHL [K16L] next? 0.0

Can you handle FVKDPQGRIIAVFKPKNEEPYGHC [L24C] next? 1.0

Can you handle FVKDPQGRIIAVFKPCNEEPYGHL [K16C] next? 0.0

Can you handle FVKDPLGRIIAVFKPKNEEPYGHL [Q6L] next? 1.0

Can you handle FVKDPQGRIIAVFKPKNEPPYGHL [E19P] next? 0.0

Can you handle FVKDPQGGIIAVFKPKNEEPYGHL [R8G] next? 1.0

Can you handle FVKDPQGLIIAVFKPKNEEPYGHL [R8L] next? 0.0

Can you handle FVKDPQGRIIAVRKPKNEEPYGHL [F13R] next? 0.0

Can you handle FVKDPAGRIIAVFKPKNEEPYGHL [Q6A] next? 0.0

Can you handle FVKDPQGRIIAVFKPKNEEPYGHM [L24M] next? 0.0

Can you handle FVKDPQGRIIAVFKPKNHEPYGHL [E18H] next? 0.0

Can you handle FVKDPQGRIIYVFKPKNEEPYGHL [A11Y] next? 0.0

Can you handle FVKDPQGRNIAVFKPKNEEPYGHL [I9N] next? 1.0

Can you handle FVKDAQGRIIAVFKPKNEEPYGHL [P5A] next? 0.0

Can you handle FVKDPQGRIIAVHKPKNEEPYGHL [F13H] next? 1.0

Can you handle FVKDPQDRIIAVFKPKNEEPYGHL [G7D] next? 0.0

Can you handle FVKDPQGRIIIVFKPKNEEPYGHL [A11I] next? 0.0

Can you handle HVKDPQGRIIAVFKPKNEEPYGHL [F1H] next? 1.0

Can you handle FVKDPQGRIIAVFKQKNEEPYGHL [P15Q] next? 1.0

Can you handle FVKDPNGRIIAVFKPKNEEPYGHL [Q6N] next? 0.0

Can you handle FVKDPQGRIIAVDKPKNEEPYGHL [F13D] next? 0.0

Can you handle FVKDPQGRIIAVFKPKNREPYGHL [E18R] next? 1.0

Can you handle FVKDPQGRIIALFKPKNEEPYGHL [V12L] next? 1.0

Can you handle FVKDPQGRIIWVFKPKNEEPYGHL [A11W] next? 1.0

Can you handle FVKDWQGRIIAVFKPKNEEPYGHL [P5W] next? 1.0

Can you handle FVKDPQGRIIAVFKPKAEEPYGHL [N17A] next? 1.0

Can you handle FVKDPQGRIIAVFKPKNEECYGHL [P20C] next? 0.0

Can you handle FVKDPQGRIIAVFKPKIEEPYGHL [N17I] next? 0.0

Can you handle VVKDPQGRIIAVFKPKNEEPYGHL [F1V] next? 1.0

Can you handle FVKDPQGRIIAVFKPKNEEPYGKL [H23K] next? 0.0

Can you handle FVKDPQGRSIAVFKPKNEEPYGHL [I9S] next? 1.0

Can you handle FVWDPQGRIIAVFKPKNEEPYGHL [K3W] next? 1.0

Can you handle FVKFPQGRIIAVFKPKNEEPYGHL [D4F] next? 1.0

Can you handle FVKDPQGRIIAVFKPKNEEPRGHL [Y21R] next? 1.0

Can you handle NVKDPQGRIIAVFKPKNEEPYGHL [F1N] next? 1.0

Can you handle FVKDPQGTIIAVFKPKNEEPYGHL [R8T] next? 1.0

Can you handle FVKDLQGRIIAVFKPKNEEPYGHL [P5L] next? 0.0

Can you handle FVKDPQGRIIAVFKPKNEEPYQHL [G22Q] next? 1.0

Can you handle FVKDPFGRIIAVFKPKNEEPYGHL [Q6F] next? 0.0

Can you handle FVKDPTGRIIAVFKPKNEEPYGHL [Q6T] next? 1.0

Can you handle FVKDPQGRIIAVFKPKNEEPYGIL [H23I] next? 1.0

Can you handle FVKDPQGWIIAVFKPKNEEPYGHL [R8W] next? 0.0

Can you handle FVKDPQGVIIAVFKPKNEEPYGHL [R8V] next? 0.0

Can you handle FVKDPQGFIIAVFKPKNEEPYGHL [R8F] next? 1.0

Can you handle FVKDPQGRIIAVFMPKNEEPYGHL [K14M] next? 1.0

Can you handle FVKDPQGRIIAVSKPKNEEPYGHL [F13S] next? 0.0

Can you handle FVKDPQGRIIAVFKPKNEEYYGHL [P20Y] next? 0.0

Can you handle FVKDPQGRIIAVFKPKNEEPYGDL [H23D] next? 1.0

Can you handle FVKDPQGRIIAVFKPKNEEPYGAL [H23A] next? 0.0

Can you handle FVKDPQGRIIAVFKPKNERPYGHL [E19R] next? 0.0

Can you handle FVKDPQKRIIAVFKPKNEEPYGHL [G7K] next? 1.0

Can you handle FVKDPQGRIIAVFVPKNEEPYGHL [K14V] next? 0.0

Can you handle FVKDPQGRIIAVFKPYNEEPYGHL [K16Y] next? 1.0

Can you handle FVEDPQGRIIAVFKPKNEEPYGHL [K3E] next? 0.0

Can you handle FVKDPQGRIIAVFKPKNVEPYGHL [E18V] next? 1.0

Can you handle FVKDPQHRIIAVFKPKNEEPYGHL [G7H] next? 1.0

Can you handle FVKDPQGRIIAVFKPKNEFPYGHL [E19F] next? 0.0

Can you handle FVKDPQGRIYAVFKPKNEEPYGHL [I10Y] next? 1.0

Can you handle FVKDPMGRIIAVFKPKNEEPYGHL [Q6M] next? 0.0

Can you handle FVKGPQGRIIAVFKPKNEEPYGHL [D4G] next? 0.0

Can you handle FVKDPQGRIIAVFKPKNEEPVGHL [Y21V] next? 0.0

Can you handle FVKDPQGRIIAVFKPKNEEPYGHG [L24G] next? 0.0

Can you handle FVKDPQGRIIAVFKPKNEEPYTHL [G22T] next? 0.0

Can you handle FVKDPQGRIIAVFKPFNEEPYGHL [K16F] next? 1.0

Can you handle DVKDPQGRIIAVFKPKNEEPYGHL [F1D] next? 1.0

Can you handle FVKDPQGRIGAVFKPKNEEPYGHL [I10G] next? 1.0

Can you handle FDKDPQGRIIAVFKPKNEEPYGHL [V2D] next? 1.0

Can you handle FVKDPQGRIIAVFKPKNEEPYGHA [L24A] next? 1.0

Can you handle FVKDPQGRIIAVFKPKNSEPYGHL [E18S] next? 1.0

Can you handle FVKDPQGRIIAVFKPKNEEPYVHL [G22V] next? 0.0

Can you handle FVKDPQGRIWAVFKPKNEEPYGHL [I10W] next? 1.0

Can you handle FSKDPQGRIIAVFKPKNEEPYGHL [V2S] next? 1.0

Can you handle FVKDPQGRIIAVFKPKWEEPYGHL [N17W] next? 1.0

Can you handle FVKDPQGRIIAVFKPKNEEKYGHL [P20K] next? 0.0
